assay: Inhibition of PTK
Could you please mark 1 for values of Ki below 3000 nM and -1 for values at or above it?

Just wondering, is Ki of O=C1CSC([C@H](O)[C@H](O)[C@@H](O)[C@@H](O)CO)N1c1ccc(S(=O)(=O)Nc2ccccn2)cc1 (some centres undefined) below 3000 nM?
1

* * *

Entries and their measured pKi follow.
experiment: Inhibition of PTK
The quantity pKi is defined as the negative base-10 logarithm of the molar concentration.

Field: example entries. Status: answers known.
>  <MOLECULE>
COc1ccc(/C=N/c2ccc(S(=O)(=O)Nc3ccccn3)cc2)c(O)c1

>  <pKi>
6.59

$$$$
>  <MOLECULE>
COc1ccc(C2SCC(=O)N2c2ccc(S(=O)(=O)Nc3ccccn3)cc2)c(O)c1 (stereo not drawn)

>  <pKi>
4.81

$$$$
>  <MOLECULE>
COc1ccc(C2Sc3ccccc3C(=O)N2c2ccc(S(=O)(=O)Nc3ccccn3)cc2)cc1OC (stereo not drawn)

>  <pKi>
5.60

$$$$

# query: pKi of entry COc1cc(C2Sc3ccccc3C(=O)N2c2ccc(S(=O)(=O)Nc3ccccn3)cc2)cc(OC)c1OC (stereo not drawn)
4.31

# query: pKi of entry COc1ccc(C2Sc3ccccc3C(=O)N2c2ccc(S(=O)(=O)Nc3ccccn3)cc2)c(O)c1 (stereo not drawn)
5.33

# query: pKi of entry `Nc1ccc(S(=O)(=O)Nc2ccccn2)cc1`
5.44

* * *

Entries and their measured pKi follow.
test: Inhibition of PTK
The quantity pKi is defined as the negative base-10 logarithm of the molar concentration.

Field: example entries. Status: answers known.
>  <COMPOUND>
O=S(=O)(Nc1ccccn1)c1ccc(/N=C/[C@H](O)[C@H](O)[C@@H](O)[C@@H](O)CO)cc1

>  <pKi>
6.48

$$$$
>  <COMPOUND>
O=C1c2ccccc2SC(c2c[nH]c3ccccc23)N1c1ccc(S(=O)(=O)Nc2ccccn2)cc1 (configuration not stated)

>  <pKi>
6.26

$$$$
>  <COMPOUND>
COc1ccc(/C=N/c2ccc(S(=O)(=O)Nc3ccccn3)cc2)cc1OC

>  <pKi>
6.59

$$$$
>  <COMPOUND>
COc1cc(C2SCC(=O)N2c2ccc(S(=O)(=O)Nc3ccccn3)cc2)cc(OC)c1OC (configuration not stated)

>  <pKi>
5.27

$$$$
>  <COMPOUND>
COc1ccc(C2SCC(=O)N2c2ccc(S(=O)(=O)Nc3ccccn3)cc2)cc1OC (configuration not stated)

>  <pKi>
5.98

$$$$
>  <COMPOUND>
COc1cc(/C=N/c2ccc(S(=O)(=O)Nc3ccccn3)cc2)cc(OC)c1OC

>  <pKi>
6.28

$$$$

# query: pKi of entry COc1ccc(C2SCC(=O)N2c2ccc(S(=O)(=O)Nc3ccccn3)cc2)cc1 (configuration not stated)
6.15
